assay: Selectivity index, ratio of CC50 for human MT4 cells to EC50 for HIV-1 3B; type: toxicity, cell-based; settings: read-out: Ratio CC50/EC50
Each record here notes measured selectivity ratio.

entry-smiles	selectivity ratio
Cc1cc(C)c(-n2c(SCC(=O)Nc3ccc(Cl)cc3Cl)nc3cccnc32)c(C)c1	< 1
O=C(CSc1snnc1-c1ccc(Br)cc1Br)Nc1cccnc1Cl	> 6460
Cc1cc(C)c(-n2c(SCC(=O)Nc3ncc(C)cc3Br)nc3cnccc32)c(C)c1	< 1
CCOC(=O)c1ccc(NC(=O)CSc2nc3cccnc3n2-c2c(C)cc(C)cc2C)c(Br)c1	12
Cc1cc(C)c(-n2c(SCC(=O)Nc3ccccc3F)nc3cccnc32)c(C)c1	< 1
Cc1cc(C)c(-n2c(SCC(=O)Nc3ccccc3[N+](=O)[O-])nc3cccnc32)c(C)c1	≤ 6
Cc1cc(C)c(-n2c(SCC(=O)Nc3ncc(C)cc3Br)nc3cccnc32)c(C)c1	< 1
Cc1cc(C)c(-n2c(SCC(=O)Nc3ccc(Cl)cc3Cl)nc3cnccc32)c(C)c1	≤ 127
Cc1cc(C)c(-n2c(SCC(=O)Nc3ccc(C)cc3Br)nc3cccnc32)c(C)c1	< 1
Cc1cc(C)c(-n2c(SCC(=O)Nc3ccccc3F)nc3cnccc32)c(C)c1	< 1
Cc1cc(C)c(-n2c(SCC(=O)Nc3ccccc3Br)nc3cnccc32)c(C)c1	4
COC(=O)c1ccc(NC(=O)CSc2nc3cnccc3n2-c2c(C)cc(C)cc2C)c(Br)c1	≤ 11
Cc1ccnc2c1NC(=O)c1cccnc1N2C1CC1	> 75
Cc1cc(C)c(-n2c(SCC(=O)Nc3ccc(C)cc3[N+](=O)[O-])nc3cccnc32)c(C)c1	< 1
Cc1cc(C)c(-n2c(SCC(=O)Nc3ccccc3Br)nc3cccnc32)c(C)c1	< 1
CC(=O)c1ccc(NC(=O)CSc2nc3cnccc3n2-c2c(C)cc(C)cc2C)c(Br)c1	61
Cc1cc(C)c(-n2c(SCC(=O)Nc3ccccc3[N+](=O)[O-])nc3cnccc32)c(C)c1	2
CC(C)Nc1cccnc1N1CCN(C(=O)c2cc3cc(NS(C)(=O)=O)ccc3[nH]2)CC1	> 1030
Cc1cc(C)c(-n2c(SCC(=O)Nc3ccc(C)cc3Br)nc3cnccc32)c(C)c1	< 1
